system: Tov-21-G; test: Primary qHTS to identify gynecologic anti-cancer compounds using libraries of approved drugs and bioactive compounds (AID 1345084); conditions: Gynecologic cancer cell panel viability, ATPlite luminescence, 48 h; series mostly up to 57.5 µM; note: nearly all actives have a fitted effect of over 55% in size
Inconclusive results are not listed. The source made the active and inactive calls. Calls come from the whole dose curve; as a rule, active = well fitted cell-killing curve with a large enough effect; inconclusive = small, poorly fitted or top-dose-only effect, or effect the other way; inactive = flat fitted curve, though single readings scatter.
Respond using exactly one of the listed classes: 1 (yes) = active, 0 (no) = inactive

# outcome recorded in this test, key = `CC(C)(C)NC(=O)[C@H]1CC[C@H]2[C@@H]3CC[C@H]4NC(=O)CC[C@]4(C)[C@H]3CC[C@]12C`
0 (no)

For `O=C(O)c1ccc(N2C(=O)/C(=C/c3ccc(-c4ccc([N+](=O)[O-])cc4)o3)C=C2c2ccccc2)cc1` , what call appears in the results of this test?
0 (no)

State the result this test recorded for `C1=C/COCc2cc(ccc2OCCN2CCCC2)Nc2nccc(n2)-c2cccc(c2)COC/1` .
1 (yes)

Could you kindly confirm the outcome this assay logged for CC(=O)OC1C(=O)C2C3OCC4=C3[C@@](C)(CC[C@@H]4O)CC[C@]2(C)[C@H]1C(C)C (some centres undefined) ?
0 (no)

Dear colleague, could you share the recorded outcome for Cc1ccnc(NC(=O)C(C)c2cccc(C(=O)c3ccccc3)c2)c1 (centres undefined) when you have a moment?
0 (no)

Could you kindly confirm the outcome this assay logged for C=C(C)C1CCC2(C(=O)O)CCC3(C)C(CCC4C5(C)C(C=O)C(O)C(C)(C)C5CCC43C)C12 (centres undefined) ?
0 (no)

Could you kindly confirm the outcome this assay logged for `COc1ccncc1C(=O)NC(=O)Nc1ccc(-c2ccccc2)c(C(F)(F)F)c1` ?
0 (no)

In this assay, the call recorded for O=C1c2ccc(Nc3ccc(F)cc3F)cc2CCc2ccc(OCC(O)CO)cc21 (centres undefined) was what?
0 (no)

Assay outcome for `O=C(Nc1cccc2cccnc12)c1ccc(N2C(=O)[C@@H]3C4C=CC(C4)[C@@H]3C2=O)cc1` : what was it?
1 (yes)

---

tested on: KB-3-1; experiment: Cytotoxic Profiling of Annotated Libraries Using Quantitative High-Throughput Screening (AID 1296008); settings: Five cell lines viability, CellTiter-Glo ATP luminescence, 48-72 h; note: nearly all actives have a fitted effect of over 60% in size
Records with an inconclusive call do not appear. Activity calls are given as the source filed them. Calls come from the whole dose curve; as a rule, active = well fitted inhibition curve with a large enough effect; inconclusive = small, poorly fitted or top-dose-only effect; inactive = flat fitted curve, though single readings scatter.
Your reply should match one of these outcome classes. 1 = active, -1 = inactive

Fill in: this test's call for C[C@@H]1O[C@@H](O[C@H]2[C@@H](OC(=O)[C@]34CCC(C)(C)CC3C3=CCC5[C@@]6(C)C[C@H](O)[C@H](O[C@@H]7O[C@H](CO)[C@@H](O)[C@H](O)[C@H]7O[C@@H]7OC[C@@H](O)[C@H](O)[C@H]7O)[C@@](C)(C(=O)O)C6CC[C@@]5(C)[C@]3(C)CC4)OC[C@H](O)[C@@H]2O)[C@H](O)[C@H](O)[C@H]1O[C@@H]1OC[C@@H](O)[C@H](O)[C@H]1O (some centres undefined) is ___
1

Field: outcome | Entry: `CC(=O)CC(=O)Nc1ccc(Cl)c(C(F)(F)F)c1`
1

Identify the outcome logged in this assay for the compound shown: C=C1C(=O)OC[C@@H]1C/C=C(\C)CC1CC(C)C(=O)O1 (some centres undefined)
-1

Identify the outcome logged in this assay for the compound shown: COC1C(OC(=O)/C=C/C=C/C=C/C=C/C(=O)O)CCC2(CO2)C1C1(C)OC1CC=C(C)C (centres undefined)
-1

How did this test come out for `COc1cc2ncnc(Nc3cccc(I)c3)c2cc1OC` ?
1

Can you look up the reported call for `Cc1[nH]c2ccccc2c1CCNCc1ccc(/C=C/C(=O)NO)cc1` for me?
1

GET /call?item= `O=C(NCCCNc1nc(Nc2cccc(CN3CCOCC3)c2)ncc1C1CC1)C1CCC1` returns the recorded outcome of this test.
1

Query: recorded result category for `O=C(O)c1cc(N(Cc2ccc(C3CCCCC3)cc2)C(=O)c2ccc(Oc3ccccc3)cc2)ccc1O` in this test
-1

Outcome? `O=C(Nc1ccccc1C(=O)Nc1ccc(CCO)cc1)c1ccc([N+](=O)[O-])cc1`
-1

---

assay: P-glycoprotein substrates identified in KB-8-5-11 adenocarcinoma cell line, qHTS therapeutic library screen (AID 1346987); conditions: KB-8-5-11 (P-gp overexpressing) viability, CellTiter-Glo, 72 h; series mostly up to 44.5 µM; note: nearly all actives have a fitted effect of over 65% in size
Records with an inconclusive call do not appear. Active and inactive are the calls of the source. Calls come from the whole dose curve; as a rule, active = well fitted inhibition curve with a large enough effect; inconclusive = small, poorly fitted or top-dose-only effect; inactive = flat fitted curve, though single readings scatter.
Log the outcome using a class from TRUE = active, FALSE = inactive

Any idea what this test logged for `O=C(Nc1ccc(Cl)cc1)Nc1cccc(-c2cccc(N3CCCC3)n2)c1` ?
TRUE

Tell me the recorded outcome of this test for `COc1cc(NC(=O)c2cc(C3CC3)on2)c(OC)cc1Cl` .
FALSE

Just curious, what result did `C=C(C)C(=O)O[C@H]1/C(C=O)=C\CC/C(CO)=C/[C@H]2OC(=O)C(=C)[C@@H]2[C@@H]1OC` get here?
FALSE

Per the records of this test, what outcome belongs to `CCN(CC)C(=O)c1ccc(Nc2nc(OCC3CCCCC3)c3[nH]cnc3n2)cc1` ?
TRUE

Look up the recorded call for `C=CC(=O)N1CCC(Oc2cc3c(Nc4ccc(Cl)c(Cl)c4F)ncnc3cc2OC)CC1` in this test.
TRUE

GET /call?item= `COc1c2c(c(C)c3c1C(=O)OC3)O[C@@]1(C)C[C@@H](OC(C)=O)[C@]34O[C@](OC)(CC[C@]3(C)[C@H]1C2)OC4(C)C` returns the recorded outcome of this test.
FALSE

Hi, sorry to bother you, what did the test record for `COc1ccc2nc3n[nH]c(C)c3c(NCCOCCO)c2c1` ?
FALSE

Test call for this molecule, please: CCC1C(=O)N(C)c2cnc(Nc3ccc(C(=O)NC4CCN(C)CC4)cc3OC)nc2N1C1CCCC1 (stereo unspecified)
TRUE

Outcome? `O=C(Nc1cccc(C(F)(F)F)c1)Nc1ccc(Br)cc1-c1nn[nH]n1`
FALSE

Kindly provide the recorded test outcome for the following molecule: `COc1cc2c(Nc3cc(F)c(Cl)c(Cl)c3)ncnc2cc1OCC1CCCN(C)CCC1`
TRUE

Please state the recorded outcome for this molecule: `Cc1sc2c(c1C)C(c1ccc(Cl)cc1)=N[C@H](CC(=O)NCCCCNC(=O)COc1cccc3c1C(=O)N([C@H]1CCC(=O)NC1=O)C3=O)c1nnc(C)n1-2`
FALSE

# fetch the recorded call for COc1ccc(C2NC(=S)N3C(c4ccc(OC)c(OC)c4)NC(=S)N23)cc1OC (stereo unspecified) here
FALSE

Would you mind telling me which call this test gave `CCN(CC)CCCS(=O)(=O)N[C@H](CCc1ccccc1)c1nc(Cc2ccc(Br)cc2)no1` ?
TRUE

Which result was noted for this molecule in the test: COc1cccc(-c2cc(F)ccc2C2Cc3nc(N)nc(C)c3C(=O)N2)n1 (stereo unspecified)
TRUE

Per the records of this test, what outcome belongs to CC1(C)S[C@@H]2[C@H](NC(=O)C(C(=O)Oc3ccc4c(c3)CCC4)c3ccccc3)C(=O)N2[C@H]1C(=O)O (stereo partly specified) ?
FALSE

Record lookup: outcome of this test for `N#Cc1cc(C2=Nc3ccc(Br)cc3NC(=O)C2)ccn1` ?
FALSE

What call does the record list for CCO[C@H]1CN(C2CCC(O)(c3ccc4c(c3)OCO4)CC2)C[C@@H]1NC(=O)CNC(=O)c1cccc(C(F)(F)F)c1 (stereo partly specified) ?
FALSE

Outcome? `CC(C)CCNc1ncccc1C(=O)N1CCN(Cc2ccccc2)CC1`
FALSE

Test call for this molecule, please: `CS(=O)(=O)Nc1cc2occ(NC=O)c(=O)c2cc1Oc1ccccc1`
FALSE

What was the test verdict on `CO/N=C(\C(=O)N[C@@H]1C(=O)N2C(C(=O)OCOC(=O)C(C)(C)C)=C(/C=C\c3scnc3C)CS[C@H]12)c1csc(N)n1` ?
FALSE

Could you kindly confirm the outcome this assay logged for `CC(C)(C)NC(=O)[C@H]1CC[C@H]2[C@@H]3CC=C4C=C(C(=O)O)CC[C@]4(C)[C@H]3CC[C@]12C` ?
FALSE

Per the assay record, what outcome was assigned to `C=CC(=O)Nc1cc(-n2c(=O)ccc3cnc4ccc(-c5ccc(NS(C)(=O)=O)cc5)cc4c32)ccc1C` ?
FALSE

Please state the recorded outcome for this molecule: `Cn1ncnc1[C@H]1c2n[nH]c(=O)c3cc(F)cc(c23)N[C@@H]1c1ccc(F)cc1`
FALSE

Please let me know the test result on file for COc1ccc(NC(=O)C2C[C@H](C)CC[C@H]2C(C)C)cc1 (stereo partly specified) .
FALSE

Please indicate how the test categorized `COc1ccc(C(=O)O[C@H]2C=COC=C3C=C4C(=O)N(C)C(=S)C(=O)N4[C@@H]32)cc1Oc1cc(C=O)ccc1O` .
FALSE

Field: outcome | Entry: `CCOC(=O)COc1ccc2c(=O)cc(-c3ccccc3)oc2c1`
FALSE

Identify the outcome logged in this assay for the molecule shown: COc1cc(O)cc(OC2OC(CO)C(O)C(O)C2O)c1 (stereo unspecified)
FALSE

Which outcome did this test record for the molecule C=CC1(C)CC(O)C(C(=C)C(=O)OC)C(O)C1C(=C)CO (stereo unspecified) ?
FALSE

Which outcome did this test record for the molecule CC(C)C(C)C(O)C1CC23CC(=O)C4(O)C(=C2CCC3C1C)C=CC1(O)CC(O)CCC14C (stereo unspecified) ?
FALSE

What is the recorded call for this molecule in the test? `CCCNCCc1ccc(NS(=O)(=O)c2ccc(OC(F)(F)F)cc2)cc1`
FALSE

Could you please tell me the result logged for `CC(C)CCNC(=O)[C@H](CC(C)C)NC(=O)[C@H]1O[C@@H]1C(=O)O` in this assay?
FALSE

What classification did `CC(C)n1cnc2c(-c3cnc(N)nc3)nc(N3CCOCC3)nc21` end up with in this test?
TRUE

Test call for this molecule, please: C=C1CC[C@@H]2[C@](C)(CO)[C@H](O)CC[C@@]2(C)[C@@H]1C/C=C1/C(=O)OCC1OC(=O)/C(=C/CO)C(O)C[C@@H]1C(=C)CC[C@@H]2[C@](C)(CO)[C@H](O)CC[C@]21C (stereo partly specified)
FALSE

Lab log entry: `Cc1nnc(C[C@@H]2C=C(c3ccc(Cl)cc3)c3ccccc3-n3c(C)nnc32)o1` — outcome as called in the assay?
TRUE

Give the logged outcome of this assay for the following molecule: `Cc1csc(N(C(=O)CSc2ccc(-c3ccccc3)nn2)C2CC2)n1`
FALSE

Just curious, what result did `O=C1NC(=O)C(c2cnc3ccccn23)=C1c1cn2c3c(cc(F)cc13)CN(C(=O)N1CCCCC1)CC2` get here?
TRUE
